B1: CPEB3 Ribozyme (parent)
chain: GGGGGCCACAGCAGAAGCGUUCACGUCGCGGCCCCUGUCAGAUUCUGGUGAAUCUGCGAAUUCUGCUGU

Variants of: B1
Test: self-cleavage, relative activity (ratio to wild type); higher = more cleavage; co-transcriptional

{"VARIANT IDENTIFIER": "A8G A23G", "self-cleavage": 0.623}
{"VARIANT IDENTIFIER": "U21A G56C", "self-cleavage": 0.755}
{"VARIANT IDENTIFIER": "U38C G65A", "self-cleavage": 0.746}
{"VARIANT IDENTIFIER": "G2U G68U", "self-cleavage": 0.106}
{"VARIANT IDENTIFIER": "G11U G47A", "self-cleavage": 0.897}
{"VARIANT IDENTIFIER": "C22A C35A", "self-cleavage": 0.252}
{"VARIANT IDENTIFIER": "A60C G68C", "self-cleavage": 0.392}
{"VARIANT IDENTIFIER": "G3A U21A", "self-cleavage": 0.455}
{"VARIANT IDENTIFIER": "G17A G25U", "self-cleavage": 0.117}
{"VARIANT IDENTIFIER": "C35G G48A", "self-cleavage": 0.452}
{"VARIANT IDENTIFIER": "U43C G58A", "self-cleavage": 0.943}
{"VARIANT IDENTIFIER": "A15U C39A", "self-cleavage": 0.309}
{"VARIANT IDENTIFIER": "G47A G56U", "self-cleavage": 1.01}
{"VARIANT IDENTIFIER": "G4C C54A", "self-cleavage": 0.225}
{"VARIANT IDENTIFIER": "C45G U53C", "self-cleavage": 0.806}
{"VARIANT IDENTIFIER": "G5U U20C", "self-cleavage": 0.0958}
{"VARIANT IDENTIFIER": "G5C A42C", "self-cleavage": 0.207}
{"VARIANT IDENTIFIER": "C39U G56A", "self-cleavage": 1}
{"VARIANT IDENTIFIER": "G11C U61G", "self-cleavage": 0.383}
{"VARIANT IDENTIFIER": "A15C C57U", "self-cleavage": 0.423}
{"VARIANT IDENTIFIER": "C7A A13G", "self-cleavage": 0.598}
{"VARIANT IDENTIFIER": "C22A U64A", "self-cleavage": 0.176}
